- System: Mus musculus
- ASSAY METHOD TEXT: Competition of compound for the in vivo localization of [11C] Methoxytetrabenazine in mouse Hyphalamus; %ID/g (%injected dose/g)
- Type: functional, organism-based
OBSERVED PROPERTY: ID/g
Write your answer as a measured quantity: the number, then the unit.

Ask: Recorded ID/g for CCC[C@]1(O)C[C@@H]2c3cc(OC)c(OC)cc3CCN2C[C@H]1CC(C)C , please?
Reply: 1.96%

Ask: Which ID/g reading was recorded for the compound COc1cc2c(cc1OC)[C@H]1C[C@@](C)(O)[C@H](CC(C)C)CN1CC2 ?
Reply: 1.96%

* * *

- ASSAYED TARGET: Synaptic vesicular amine transporter (Rattus norvegicus)
- Sequence (Q01827 whole entry): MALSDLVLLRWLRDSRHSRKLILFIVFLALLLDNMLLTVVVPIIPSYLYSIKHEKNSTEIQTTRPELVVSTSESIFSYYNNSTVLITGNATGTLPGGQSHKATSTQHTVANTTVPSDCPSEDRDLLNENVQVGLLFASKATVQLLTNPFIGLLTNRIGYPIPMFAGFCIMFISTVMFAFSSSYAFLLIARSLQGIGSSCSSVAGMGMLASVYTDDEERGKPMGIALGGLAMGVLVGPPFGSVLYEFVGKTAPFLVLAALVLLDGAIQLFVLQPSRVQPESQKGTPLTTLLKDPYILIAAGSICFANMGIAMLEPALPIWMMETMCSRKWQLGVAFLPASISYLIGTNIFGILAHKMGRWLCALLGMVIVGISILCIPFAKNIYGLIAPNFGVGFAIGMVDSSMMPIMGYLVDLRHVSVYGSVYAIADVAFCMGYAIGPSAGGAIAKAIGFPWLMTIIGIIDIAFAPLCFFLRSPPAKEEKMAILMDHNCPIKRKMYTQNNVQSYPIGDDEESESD
OBSERVED PROPERTY: pKi
Please keep in mind that pKi is minus log10 of the molar concentration; only the number is needed.

RECORD SMILES	ASSAYED TARGET	pKi
COc1cc2c(cc1OC)[C@H]1C[C@@](O)(C(C)C)[C@H](CC(C)C)CN1CC2	Synaptic vesicular amine transporter (Rattus norvegicus)	6.87

Ask: Item under review: CCC[C@]1(O)C[C@@H]2c3cc(OC)c(OC)cc3CCN2C[C@H]1CC(C)C . Reported pKi?
Reply: 7.08

Ask: Looking for the measured pKi of COc1cc2c(cc1OC)[C@H]1C[C@@](C)(O)[C@H](CC(C)C)CN1CC2 , can you help?
Reply: 8.59

* * *

- Test system: Mus musculus
- ASSAY METHOD TEXT: Competition of compound for the in vivo localization of [11C] Methoxytetrabenazine in mouse Hyphalamus; %ID/g (%injected dose/g)
- Type: functional, organism-based
Hi, to clarify the labels: rule met covers ID/g from 2% upward, rule not met covers anything below 2%.

Ask: Can COc1cc2c(cc1OC)[C@H]1C[C@@](O)(CC(C)C)[C@H](CC(C)C)CN1CC2 be said to have ID/g at or above 2%?
Reply: rule met

Ask: Assess whether reported ID/g for COc1cc2c(cc1OC)[C@H]1C[C@](C)(O)[C@H](CC(C)C)CN1CC2 sits at 2% or higher.
Reply: rule not met

Ask: In plain terms: is recorded ID/g at least 2% for COc1cc2c(cc1OC)[C@H]1C[C@@](O)(C(C)C)[C@H](CC(C)C)CN1CC2 ?
Reply: rule met

Ask: Please tell me: is the compound COc1cc2c(cc1OC)[C@H]1CC(=O)[C@H](CC(C)C)CN1CC2 at or over 2% in terms of ID/g?
Reply: rule not met

Ref: ChEMBL document CHEMBL1129286
